- study system: E. coli DNA gyrase (Escherichia coli (strain K12), UniProt P0AES6)
- experiment summary: DNA gyrase inhibition assay (Inspiralis, streptavidin-coated plates)
test readout: pIC50
Please treat pIC50 as minus the base-10 logarithm of the molar concentration.

Note to self: pIC50 recorded for `COC(=O)c1cc(N2CC[C@H](N)C2)c2nc(NC(=O)c3[nH]c(C)c(Cl)c3Cl)sc2c1.Cl` was 7.32

Note to self: pIC50 recorded for `Cc1[nH]c(C(=O)Nc2nc3cc(C(=O)O)ccc3s2)c(Cl)c1Cl` was 6.08

Note to self: pIC50 recorded for `Cc1[nH]c(C(=O)Nc2nc3ccc(C(N)=O)cc3s2)c(Cl)c1Cl` was 7.96

Note to self: pIC50 recorded for `Cc1[nH]c(C(=O)N(c2nc3ccc(C(=O)O)cc3s2)C2CC2)c(Cl)c1Cl` was 7.62

Note to self: pIC50 recorded for `O=C(NO)c1ccc2nc(NC(=O)c3cc(Br)c(Br)[nH]3)sc2c1` was 7.05
